Recorded measurements of growth at 10 µM, one per entry
System: SR
method: Cytotoxicity against human SR cells assessed as cell growth at 10 uM
Assay type: functional
setup.conditions: read-out: Activity
readout.kind: growth at 10 µM (%)

In [3]: df
Out[3]:
                           structure_string     readout_kind  number
0  COc1cc(C)cc(-c2c(-c3ccnc(-c4ccc(N(C)C)cc4)c3)cnn2CC#N)c1  growth at 10 µM   -6.91
1  Cc1cc(O)cc(-c2nn(CC#N)cc2-c2ccnc(-c3ccccc3)c2)c1  growth at 10 µM    80.3
2  COc1cc(C)cc(-c2c(-c3ccnc(-c4ccc(C(C)=O)cc4)c3)cnn2CC#N)c1  growth at 10 µM      25
3  COc1cc(C)cc(-c2nn(CC#N)cc2-c2ccnc(-c3ccc(C(C)=O)cc3)c2)c1  growth at 10 µM    78.4
4  Cc1cc(O)cc(-c2nn(CC#N)cc2-c2ccnc(-c3ccc(C#N)cc3)c2)c1  growth at 10 µM    88.5

----------
System: MCF7
method: Cytotoxicity against human MCF7 cells assessed as cell growth at 100 nM after 48 hrs by sulforhodamine B assay
Format: functional
setup.conditions: MCF7, 48 h, read-out: Activity
Label 1 for high-side growth at 0.1 µM (at or above 70%) and 0 for low-side growth at 0.1 µM (below it).

>>> print(df.to_string())
                           structure_string  group
0  Cc1cc(O)cc(-c2nn(CC#N)cc2-c2ccnc(-c3ccc(Oc4ccccc4)cc3)c2)c1      1
1  COc1cc(C)cc(-c2nn(CC#N)cc2-c2ccnc(-c3ccc(N(C)C)cc3)c2)c1      0
2  Cc1cc(O)cc(-c2nn(CC#N)cc2-c2ccnc(-c3ccc(N(C)C)cc3)c2)c1      0
3  COc1cc(C)cc(-c2c(-c3ccnc(-c4ccc(C(C)=O)cc4)c3)cnn2CC#N)c1      1

----------
Recorded measurements of log10(TGI), one per entry
method: Growth inhibition of human […] cells after 48 hrs by sulforhodamine B assay
Format: functional
readout.kind: log10(TGI) (log10 of the value in µM)

>>> df
                           structure_string  number
0  Cc1cc(O)cc(-c2nn(CC#N)cc2-c2ccnc(-c3ccc(N(C)C)cc3)c2)c1    1.35
1  COc1cc(C)cc(-c2nn(CC#N)cc2-c2ccnc(-c3ccc(N(C)C)cc3)c2)c1    1.03
2  COc1cc(C)cc(-c2c(-c3ccnc(-c4ccc(C(C)=O)cc4)c3)cnn2CC#N)c1    0.96
3  Cc1cc(O)cc(-c2nn(CC#N)cc2-c2ccnc(-c3ccc(Oc4ccccc4)cc3)c2)c1    0.81
4  COc1cc(C)cc(-c2nn(CC#N)cc2-c2ccc(-c3cccc(C(C)=O)c3)nc2)c1    1.27
5  COc1cc(C)cc(-c2c(-c3ccnc(-c4ccc(N(C)C)cc4)c3)cnn2CC#N)c1    0.29

----------
Recorded measurements of growth at 0.01 µM, one per entry
Test system: TK-10
method: Cytotoxicity against human TK10 cells assessed as cell growth at 0.01 uM after 48 hrs by sulforhodamine B assay
Type: functional
setup.conditions: TK-10, 48 h, read-out: Activity
readout.kind: growth at 0.01 µM (%)

In [3]: df
Out[3]:
                           structure_string       readout_kind  number
0  Cc1cc(O)cc(-c2nn(CC#N)cc2-c2ccnc(-c3ccc(Oc4ccccc4)cc3)c2)c1  growth at 0.01 µM      99
1  COc1cc(C)cc(-c2nn(CC#N)cc2-c2ccnc(-c3ccc(N(C)C)cc3)c2)c1  growth at 0.01 µM     119
2  COc1cc(C)cc(-c2c(-c3ccnc(-c4ccc(N(C)C)cc4)c3)cnn2CC#N)c1  growth at 0.01 µM      75
3  COc1cc(C)cc(-c2nn(CC#N)cc2-c2ccc(-c3cccc(C(C)=O)c3)nc2)c1  growth at 0.01 µM     100
4  Cc1cc(O)cc(-c2nn(CC#N)cc2-c2ccnc(-c3ccc(N(C)C)cc3)c2)c1  growth at 0.01 µM     107
5  COc1cc(C)cc(-c2c(-c3ccnc(-c4ccc(C(C)=O)cc4)c3)cnn2CC#N)c1  growth at 0.01 µM     100

----------
Tested on: IGROV-1
method: Cytotoxicity against human IGROV1 cells assessed as cell growth at 10 uM
Type: functional
setup.conditions: read-out: Activity
readout.kind: growth at 10 µM (%)

In [3]: df
Out[3]:
                           structure_string  number
0  COc1cc(C)cc(-c2nn(CC#N)cc2-c2ccnc(-c3cccc(NC(C)=O)c3)c2)c1    98.4
1  COc1cc(C)cc(-c2c(-c3ccnc(-c4ccc(C(C)=O)cc4)c3)cnn2CC#N)c1    98.5
2  COc1cc(C)cc(-c2nn(CC#N)cc2-c2ccc(-c3cccc(C(C)=O)c3)nc2)c1    34.6
3  Cc1cc(O)cc(-c2nn(CC#N)cc2-c2ccnc(-c3ccc(C#N)cc3)c2)c1    77.3

----------
Test system: MDA-MB-435
method: Growth inhibition of human MDA-MB-435 cells after 48 hrs by sulforhodamine B assay
Assay type: functional
setup.conditions: MDA-MB-435, 48 h, read-out: LC50 (the source's name)
readout.kind: CC50

>>> df
                           structure_string      system    result
0  COc1cc(C)cc(-c2nn(CC#N)cc2-c2ccnc(-c3ccc(N(C)C)cc3)c2)c1  MDA-MB-435  > 100 µM
1  COc1cc(C)cc(-c2c(-c3ccnc(-c4ccc(N(C)C)cc4)c3)cnn2CC#N)c1  MDA-MB-435  > 100 µM
2  COc1cc(C)cc(-c2c(-c3ccnc(-c4ccc(C(C)=O)cc4)c3)cnn2CC#N)c1  MDA-MB-435  > 100 µM
3  COc1cc(C)cc(-c2nn(CC#N)cc2-c2ccc(-c3cccc(C(C)=O)c3)nc2)c1  MDA-MB-435  > 100 µM
4  Cc1cc(O)cc(-c2nn(CC#N)cc2-c2ccnc(-c3ccc(Oc4ccccc4)cc3)c2)c1  MDA-MB-435   60.6 µM
5  Cc1cc(O)cc(-c2nn(CC#N)cc2-c2ccnc(-c3ccc(N(C)C)cc3)c2)c1  MDA-MB-435  > 100 µM

----------
Test system: LOX IMVI
method: Cytotoxicity against human LOXIMVI cells assessed as cell growth at 10 uM
Assay type: functional
setup.conditions: read-out: Activity
Assign labels as follows, please: True for growth at 10 µM below 5%; False for growth at 10 µM equal to or exceeding 5%.

>>> print(df.to_string())
                           structure_string  group
0  COc1cc(C)cc(-c2c(-c3ccnc(-c4ccc(N(C)C)cc4)c3)cnn2CC#N)c1   True
1  COc1cc(C)cc(-c2nn(CC#N)cc2-c2ccnc(-c3ccc(N(C)C)cc3)c2)c1  False
2  COc1cc(C)cc(-c2nn(CC#N)cc2-c2ccnc(-c3cccc(NC(C)=O)c3)c2)c1  False
3  Cc1cc(O)cc(-c2nn(CC#N)cc2-c2ccnc(-c3ccc(N(C)C)cc3)c2)c1  False
4  Cc1cc(O)cc(-c2nn(CC#N)cc2-c2ccnc(-c3ccccc3)c2)c1  False

----------
Tested on: K562
method: Cytotoxicity against human K562 cells assessed as cell growth at 100 nM after 48 hrs by sulforhodamine B assay
Assay type: functional
setup.conditions: K562, 48 h, read-out: Activity
Label Condition met for high-side growth at 0.1 µM (at or above 50%) and Condition not met for low-side growth at 0.1 µM (below it).

                           structure_string  system              group
0  COc1cc(C)cc(-c2nn(CC#N)cc2-c2ccc(-c3cccc(C(C)=O)c3)nc2)c1    K562  Condition not met
1  COc1cc(C)cc(-c2c(-c3ccnc(-c4ccc(C(C)=O)cc4)c3)cnn2CC#N)c1    K562  Condition not met
2  Cc1cc(O)cc(-c2nn(CC#N)cc2-c2ccnc(-c3ccc(Oc4ccccc4)cc3)c2)c1    K562  Condition not met
3  Cc1cc(O)cc(-c2nn(CC#N)cc2-c2ccnc(-c3ccc(N(C)C)cc3)c2)c1    K562      Condition met
4  COc1cc(C)cc(-c2c(-c3ccnc(-c4ccc(N(C)C)cc4)c3)cnn2CC#N)c1    K562  Condition not met
5  COc1cc(C)cc(-c2nn(CC#N)cc2-c2ccnc(-c3ccc(N(C)C)cc3)c2)c1    K562  Condition not met

----------
Test system: KM12
method: Cytotoxicity against human KM12 cells assessed as cell growth at 10 uM
Format: functional
setup.conditions: read-out: Activity
Recorded measurements of growth at 10 µM, one per entry
readout.kind: growth at 10 µM (%)

>>> df
                           structure_string     readout_kind  number
0  COc1cc(C)cc(-c2nn(CC#N)cc2-c2ccnc(-c3ccc(Oc4ccccc4)cc3)c2)c1  growth at 10 µM     100
1  Cc1cc(O)cc(-c2nn(CC#N)cc2-c2ccnc(-c3ccc(C#N)cc3)c2)c1  growth at 10 µM    95.6
2  COc1cc(C)cc(-c2nn(CC#N)cc2-c2ccnc(-c3ccc(N(C)C)cc3)c2)c1  growth at 10 µM    7.15
3  Cc1cc(O)cc(-c2nn(CC#N)cc2-c2ccnc(-c3ccc(N(C)C)cc3)c2)c1  growth at 10 µM    27.3
4  COc1cc(C)cc(-c2c(-c3ccnc(-c4cccc(NC(C)=O)c4)c3)cnn2CC#N)c1  growth at 10 µM     109
5  COc1cc(C)cc(-c2nn(CC#N)cc2-c2ccnc(-c3ccc(C#N)cc3)c2)c1  growth at 10 µM     102
6  Cc1cc(O)cc(-c2nn(CC#N)cc2-c2ccnc(-c3ccccc3)c2)c1  growth at 10 µM    97.2
